meta.source: patent US7273880B2

molecular target: hNPY-1,2,4 (human Y1, Y2, Y4 receptors); test: Radioligand binding to membranes, cloned human Y1, Y2 and Y4 receptors; settings: one bound given for all three
endpointName: Ki

Answered cases to consult:
>>> reportedvalue("CCN(CC)S(=O)(=O)NCCCCCNc1nc2c(s1)CCSc1ccccc1-2")
"> 10000 nM"
>>> reportedvalue("O=S(=O)(NCCCCCNc1nc2c(s1)CCCc1ccc(F)cc1-2)c1ccc(F)cc1F")
"> 1000 nM"
>>> reportedvalue("CCN(CC)S(=O)(=O)NCCCCCNc1nc2c(s1)CCCc1ccc(F)cc1-2")
"> 10000 nM"
>>> reportedvalue("O=S(=O)(CC(F)(F)F)N[C@H]1CC[C@H](Nc2nc3c(s2)CCCc2ccc(F)cc2-3)CC1")
"> 10000 nM"

The compound listed as Cc1noc(C)c1S(=O)(=O)NC[C@H]1CC[C@H](Nc2nc3c(s2)CCCc2ccc(F)cc2-3)CC1 has a reported Ki of > 10000 nM

The compound listed as O=S(=O)(Cc1ccccc1)NCCCCCNc1nc2c(s1)CCCc1ccc(F)cc1-2 has a reported Ki of > 10000 nM

The compound listed as O=S(=O)(N[C@H]1CC[C@H](Nc2nc3c(s2)CCCc2ccc(F)cc2-3)CC1)c1cccs1 has a reported Ki of > 10000 nM

The compound listed as Cn1cnc(S(=O)(=O)NCCCCCNc2nc3c(s2)CCCc2ccc(F)cc2-3)c1 has a reported Ki of > 10000 nM

----------
molecular target: human Y5 receptor (hNPY-5) (Homo sapiens, UniProt Q15761); construct: expressed in transfected cells; host or cells: mouse fibroblast LM(tk-) cells, e.g. L-hY5-7 (ATCC CRL-11995); experiment: Radioligand binding to membranes, cloned human Y5 receptor; details: cloned human NPY Y5 receptor, radioligand competition binding; Tables 1-3; read-out: Ki, nM hNPY-5
Sequence (Q15761 whole entry): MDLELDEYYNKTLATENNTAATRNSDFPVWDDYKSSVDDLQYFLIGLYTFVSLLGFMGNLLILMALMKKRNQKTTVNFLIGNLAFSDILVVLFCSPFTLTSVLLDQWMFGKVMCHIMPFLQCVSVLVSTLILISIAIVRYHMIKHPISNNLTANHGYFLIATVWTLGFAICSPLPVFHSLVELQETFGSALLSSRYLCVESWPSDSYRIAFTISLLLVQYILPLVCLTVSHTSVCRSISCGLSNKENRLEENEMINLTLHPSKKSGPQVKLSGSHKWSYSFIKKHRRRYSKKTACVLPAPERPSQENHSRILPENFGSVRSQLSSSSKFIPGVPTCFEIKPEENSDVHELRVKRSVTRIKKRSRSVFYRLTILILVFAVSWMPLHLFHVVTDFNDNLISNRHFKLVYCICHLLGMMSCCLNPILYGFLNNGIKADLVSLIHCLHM
endpointName: Ki (nM)

Answered cases to consult:
>>> reportedvalue("CC(C)(C)OC(=O)NCCCCCNc1nc2c(s1)CCSc1ccc(F)cc1-2 [Example 105]")
91
>>> reportedvalue("CCS(=O)(=O)NC[C@H]1CC[C@H](Nc2nc3c(s2)CCCc2ccc(F)cc2-3)CC1 [Example 31]")
3.9
>>> reportedvalue("O=S(=O)(NCCCCCNc1nc2c(s1)CCCc1ccc(F)cc1-2)c1cccnc1 [Example 55]")
3.4
>>> reportedvalue("CCN(CC)S(=O)(=O)NC[C@H]1CC[C@H](Nc2nc3c(s2)CCSc2ccccc2-3)CC1 [Example 102]")
5.2
>>> reportedvalue("CC(C)S(=O)(=O)N[C@H]1CC[C@H](CNc2nc3c(s2)CCCc2ccc(F)cc2-3)CC1 [Example 53]")
3.2
>>> reportedvalue("COc1ccc(C)cc1S(=O)(=O)NCCCCC(=O)Nc1nc2c(s1)CCCc1ccc(F)cc1-2 [Example 49]")
2.9

(1) CCCN(C=O)C[C@H]1CC[C@H](Nc2nc3c(s2)CCCc2ccc(F)cc2-3)CC1 [Example 82]
(2) CCN(CC)S(=O)(=O)NCCCCCCNc1nc2c(s1)CCSc1ccccc1-2 [Example 101]
Q) Hi there! Just curious which has the higher Ki between 1 and 2 . Refer to your chosen item by its label in the answer.
A) 1

----------
Where a name gives a salt, the structure may show the parent alone.
endpointName: melting point

Answered cases to consult:
>>> reportedvalue("COCCN(C=O)[C@H]1CC[C@H](CNc2nc3c(s2)CCOc2ccccc2-3)CC1 (as salt: HCl)")
"164 to 166 °C"
>>> reportedvalue("CCN(CC)S(=O)(=O)N[C@H]1CC[C@H](Nc2nc3c(s2)CCCc2ccc(F)cc2-3)CC1")
"172 to 174 °C"
>>> reportedvalue("COc1ccc(C)cc1S(=O)(=O)NC[C@H]1CC[C@H](Nc2nc3c(s2)CCOc2ccccc2-3)CC1 (as salt: HCl)")
"100 to 105 °C (dec.)"

The record that follows has no melting point shown yet.
The compound listed as COCC(=O)NC[C@H]1CC[C@H](Nc2nc3c(s2)CCCc2ccc(F)cc2-3)CC1 (as salt: HCl) has a reported melting point of 63 to 65 °C
